Test: Metabolic stability in CD1 mouse hepatocytes assessed as half life by LC-MS/MS analysis
Format: ADME, cell-based, Hepatocyte
attribute_measured: half-life (min)
Expressed in min, but write only the number.

half-life reading for CCN(C(=O)c1cc(C(C)C)c(O)cc1O)c1cccnc1 : 5.31

* * *

Assay: Hepatic clearance in human hepatocytes by LC-MS/MS analysis
attribute_measured: CLhep predicted
Remember to put the unit after the number in your answer.

CLhep predicted reading for CCN(C(=O)c1cc(C(C)C)c(O)cc1O)c1cccnc1 : 0.88 L/h/kg

* * *

Assay: Metabolic stability in Beagle dog hepatocytes assessed as half life by LC-MS/MS analysis
Type: ADME, cell-based, Canis lupus familiaris, Hepatocyte
attribute_measured: half-life

half-life reading for CCN(C(=O)c1cc(C(C)C)c(O)cc1O)c1cccnc1 : 39.2 min
